# Assay system: bovine cardiac myofibrils (full-length cardiac myosin ATPase in the native sarcomere) (Bos taurus (Bovine), UniProt Q9BE39)
# Sequence (Q9BE39 whole entry): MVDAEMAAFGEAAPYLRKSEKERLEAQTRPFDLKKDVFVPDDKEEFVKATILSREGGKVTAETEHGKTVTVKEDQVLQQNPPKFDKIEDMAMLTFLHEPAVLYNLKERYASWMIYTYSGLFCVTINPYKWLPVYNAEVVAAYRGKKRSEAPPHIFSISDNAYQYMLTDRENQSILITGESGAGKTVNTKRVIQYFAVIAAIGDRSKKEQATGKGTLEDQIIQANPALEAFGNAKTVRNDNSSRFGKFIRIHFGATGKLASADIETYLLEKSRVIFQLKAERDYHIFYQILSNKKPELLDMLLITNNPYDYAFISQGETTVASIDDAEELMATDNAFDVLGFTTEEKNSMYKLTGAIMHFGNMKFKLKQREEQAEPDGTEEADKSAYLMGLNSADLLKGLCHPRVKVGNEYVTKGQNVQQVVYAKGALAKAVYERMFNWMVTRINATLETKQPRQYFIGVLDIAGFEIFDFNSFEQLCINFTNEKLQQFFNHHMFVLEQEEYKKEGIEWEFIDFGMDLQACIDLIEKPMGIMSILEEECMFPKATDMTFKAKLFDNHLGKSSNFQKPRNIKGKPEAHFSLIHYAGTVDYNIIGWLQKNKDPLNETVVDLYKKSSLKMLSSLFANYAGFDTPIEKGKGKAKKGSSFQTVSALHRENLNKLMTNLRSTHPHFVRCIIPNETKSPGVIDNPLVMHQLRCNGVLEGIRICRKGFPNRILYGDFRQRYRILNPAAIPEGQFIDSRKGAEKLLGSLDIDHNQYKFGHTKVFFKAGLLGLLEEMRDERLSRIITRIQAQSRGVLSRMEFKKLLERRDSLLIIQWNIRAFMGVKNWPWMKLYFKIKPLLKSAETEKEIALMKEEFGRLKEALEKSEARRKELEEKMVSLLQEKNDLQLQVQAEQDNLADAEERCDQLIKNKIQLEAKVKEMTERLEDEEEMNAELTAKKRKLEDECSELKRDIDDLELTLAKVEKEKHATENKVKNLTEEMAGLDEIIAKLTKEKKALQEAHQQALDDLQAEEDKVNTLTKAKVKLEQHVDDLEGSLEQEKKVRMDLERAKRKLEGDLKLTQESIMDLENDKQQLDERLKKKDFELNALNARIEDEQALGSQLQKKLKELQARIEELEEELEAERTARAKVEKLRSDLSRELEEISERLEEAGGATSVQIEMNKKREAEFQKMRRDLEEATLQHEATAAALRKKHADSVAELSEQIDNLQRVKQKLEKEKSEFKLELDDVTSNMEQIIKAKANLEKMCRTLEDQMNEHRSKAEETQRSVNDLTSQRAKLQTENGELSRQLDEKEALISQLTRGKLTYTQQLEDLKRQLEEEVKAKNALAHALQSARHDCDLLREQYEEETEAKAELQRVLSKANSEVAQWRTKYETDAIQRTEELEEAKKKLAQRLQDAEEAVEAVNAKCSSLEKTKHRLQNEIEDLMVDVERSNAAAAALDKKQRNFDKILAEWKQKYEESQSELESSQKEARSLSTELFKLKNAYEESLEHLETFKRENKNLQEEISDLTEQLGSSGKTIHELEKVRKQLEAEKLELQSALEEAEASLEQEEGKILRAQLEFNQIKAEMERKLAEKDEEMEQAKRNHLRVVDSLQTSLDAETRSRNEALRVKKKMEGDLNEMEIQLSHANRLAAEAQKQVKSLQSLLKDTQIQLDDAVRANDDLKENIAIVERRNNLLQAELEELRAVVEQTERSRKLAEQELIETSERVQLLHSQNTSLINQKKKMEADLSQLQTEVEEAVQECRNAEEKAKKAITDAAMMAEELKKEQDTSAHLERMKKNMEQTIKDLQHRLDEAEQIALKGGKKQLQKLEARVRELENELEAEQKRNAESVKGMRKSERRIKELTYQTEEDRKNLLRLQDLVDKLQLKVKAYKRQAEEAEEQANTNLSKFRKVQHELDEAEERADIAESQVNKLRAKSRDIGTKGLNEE
# Sequence (P85100 whole entry partner): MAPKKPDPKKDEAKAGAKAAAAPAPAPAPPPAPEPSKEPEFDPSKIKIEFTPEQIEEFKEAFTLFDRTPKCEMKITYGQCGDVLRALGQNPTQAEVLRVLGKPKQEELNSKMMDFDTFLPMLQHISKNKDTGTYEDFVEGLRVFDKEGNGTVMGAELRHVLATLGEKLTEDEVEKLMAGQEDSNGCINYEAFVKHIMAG
# Sequence (Q3SZE5 whole entry partner): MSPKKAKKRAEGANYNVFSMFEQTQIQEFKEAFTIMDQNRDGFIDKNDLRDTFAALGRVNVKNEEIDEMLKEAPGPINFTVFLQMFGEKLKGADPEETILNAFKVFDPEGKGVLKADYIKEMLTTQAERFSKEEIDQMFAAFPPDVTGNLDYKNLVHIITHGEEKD
# Assay method text: Skinned bovine cardiac myofibril ATPase assay (PK/LDH-coupled)
# Type: biochemical
# Measurement parameters: Ca2+ activating to 75% of maximal rate, concentration giving 15% inhibition
Endpoint label: CDMF75 IC15 (nM)

Molecule	CDMF75 IC15 / nM
O=C(N[C@@H]1COc2cc(-c3noc(C(F)F)n3)ccc21)c1ccnc(CO)c1 [Compound 709]	600

I. Cc1cccc(-c2ccc3c(c2)CC[C@H]3NC(=O)c2ccnn2C)c1 [Compound 373]
II. COCc1nc(-c2ccc3c(c2)CC[C@H]3NC(=O)c2cccc(CO)c2)no1 [Compound 668]
III. CCc1nc(-c2ccc3c(c2)CC[C@H]3NC(=O)c2cc(C)no2)no1 [Compound 565]
Put the items in order so that reported CDMF75 IC15 rises from first to last. Your answer should be the labels, listed in the requested order.
III, II, I
